# Organism: Rattus norvegicus
# EXPERIMENT: DrugMatrix - Regimen: Daily Repeat
# Assay type: toxicity, organism-based, Sprague-Dawley
# Parameters: regimen Daily Repeat, gender Male, age 6-8 weeks
# REPORTED_CONDITIONS: in vivo, po, 10 mg/kg, 120 h, tissue Plasma, route oral GAVAGE, dose level Low, time 5 day, vehicle .5 % CMC
READOUT_LABEL: CHLORIDE (MEQ/L)
Express your answer in MEQ/L, writing the number without its unit.

Take a look at these entries with their results.
CC(=O)O[C@]1(C(C)=O)CC[C@H]2[C@@H]3C=C(Cl)C4=CC(=O)CC[C@]4(C)[C@H]3CC[C@@]21C [CHLORMADINONE ACETATE] = 102.33
NS(=O)(=O)c1cc2c(cc1Cl)NCNS2(=O)=O [HYDROCHLOROTHIAZIDE] = 101.67
COc1c(C)c2c(c(O)c1C/C=C(\C)CCC(=O)OCCN1CCOCC1)C(=O)OC2 [MYCOPHENOLATE MOFETIL] = 102.67

We now examine a further molecule.
# molecule O=C1CN=C(c2ccccc2)c2cc([N+](=O)[O-])ccc2N1 ; its CHLORIDE = 102
